- system tested: UniProt L7MU75
- Sequence (L7MU75 as listed by the source): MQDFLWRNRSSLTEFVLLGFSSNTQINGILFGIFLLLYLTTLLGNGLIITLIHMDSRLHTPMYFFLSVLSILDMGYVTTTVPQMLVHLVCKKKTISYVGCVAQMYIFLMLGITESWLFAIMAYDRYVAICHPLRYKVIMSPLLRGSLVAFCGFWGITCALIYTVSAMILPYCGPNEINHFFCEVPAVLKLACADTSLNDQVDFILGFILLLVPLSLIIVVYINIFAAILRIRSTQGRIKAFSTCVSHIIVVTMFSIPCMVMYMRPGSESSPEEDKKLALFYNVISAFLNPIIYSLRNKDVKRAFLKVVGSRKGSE
- condition info: stereoisomer not certain
Outcome field: choose from true (1) = active, false (0) = inactive

| molecule | group label |
| --- | --- |
| CCCCCCCCCCO | false (0) |

Task item: What did this assay record as the result for C=C1C2CCC(C2)C1(C)C (stereo not drawn) ?
Reply: false (0)

Task item: What did this assay record as the result for CCC(C)c1nccnc1OC (stereo not drawn) ?
Reply: false (0)

Task item: What did this assay record as the result for `C1CCOCC1` ?
Reply: false (0)

Task item: What did this assay record as the result for `CCCC(=O)OCC` ?
Reply: false (0)

Task item: What did this assay record as the result for `O=C(O)CCCCCCCCC(=O)O` ?
Reply: false (0)

Task item: What did this assay record as the result for `CSSCc1ccco1` ?
Reply: false (0)

Task item: What did this assay record as the result for `CCCCOC` ?
Reply: false (0)

Task item: What did this assay record as the result for `CCc1occc(=O)c1O` ?
Reply: true (1)

Task item: What did this assay record as the result for `Cc1ccc(C(C)C)c(O)c1` ?
Reply: false (0)

Task item: What did this assay record as the result for `CCC(=O)OC` ?
Reply: false (0)

Task item: What did this assay record as the result for `CCOc1ccccc1` ?
Reply: false (0)

Task item: What did this assay record as the result for `CCC(=O)C(=O)CC` ?
Reply: false (0)

Task item: What did this assay record as the result for `C=CC(C)=CCC=C(C)CCC=C(C)C` ?
Reply: false (0)

Task item: What did this assay record as the result for `OCC=Cc1ccccc1` ?
Reply: false (0)

Task item: What did this assay record as the result for `C=CC(=C)CCC=C(C)CCC=C(C)C` ?
Reply: false (0)

Task item: What did this assay record as the result for `CCCCCCCCOC=O` ?
Reply: false (0)

Task item: What did this assay record as the result for `CC1(C)CC(=O)CC(=O)C1` ?
Reply: false (0)
